Target: T1, human BDCA2 (human, UniProt Q8WTT0 1-213)
T1 construct: whole, on cells; also called hBDCA2; Blood dendritic cell antigen 2
T1 sequence (looked up): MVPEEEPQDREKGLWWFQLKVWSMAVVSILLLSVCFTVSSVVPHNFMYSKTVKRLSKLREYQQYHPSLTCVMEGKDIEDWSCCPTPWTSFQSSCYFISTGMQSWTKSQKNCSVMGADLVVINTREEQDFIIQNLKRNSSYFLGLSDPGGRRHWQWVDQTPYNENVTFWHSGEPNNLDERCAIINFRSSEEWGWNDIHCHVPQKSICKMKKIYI
Assay: FACS on CHOK1-hBDCA2 cells; EC50 table under the plot, unit from the x axis (nM)
Listed binders paired with reported pEC50
Bear in mind: pEC50 is minus log10 of a mol/L concentration; give just that figure.

BINDER	pEC50
mAb002 (antibody, V domains shown, Mouse hybridoma antibody) VH: QIQLVQSGPELKKPGETVKISCRASGYSFTDYSMHWVKQAPGKGLKWVGWINTETGEPTYADDFKGRFALSLETSATSAYLQINNLKNEDTATYFCARGGDGFPYWYFNVWGAGTTVTVSS VL: DIVLTQSPTSLAVSLGQRTNISCRASQSVSTSSNSYIHWYQQKPGQPPKLLIKYASNLDSGVPARFSGSGSGTDFTLNIHPVEEEDTSTYYCQHSWEIPFTFGSGTKLEIK	8.72
mAb001 (antibody, V domains shown, Mouse hybridoma antibody) VH: QIQLVQSGPELKKPGETVKISCKASGYTFTDFSMHWVKQAPGKGLKWMGWINTETGEPTYADDFKGRFAFSLETSASTAFLQINNLKNDDTTTYFCSRGGDGHPYWYFAVWGAGTTVTVSS VL: DIVLTQSPASLAVSLGQRATISCRASQSVSTSSYSYMHWYQQKPGQPPKLLIKYASILESGVPARFSGSGSGTDFTLNIHPVEEEDTATYYCQHSWEIPFTFGSGTKLEIK	8.86
BIIB059 (antibody, V domains shown) VH: DVQLVESGGGLVKPGGSLRLSCAASGFTFSTYTMSWVRQAPGKGLEWVATISPGDSFGYYYPDSVQGRFTISRDNAKNSLYLQMNSLRAEDTAVYYCTRDIYYNYGAWFAYWGQGTLVTVSS VL: DIQLTQSPSSLSASVGDRVTITCKASQSVDYDGDSYMNWYQQKPGKAPKLLIYAASTLESGVPSRFSGSGSGTDFTLTISSLQPEDFATYYCQQANEDPRTFGQGTKVEIKR	8.66

# input for lookup
Problem: Fill in: pEC50 of mAb005 (antibody, V domains shown, Mouse hybridoma antibody) VH: QVQLKQSGPGLVQPSQSLSITCTVSGFSLTNYGVHWVRQSPGKGLEWLGVIWSGESTDYDAAFISRLSISKDNSKSQVFFKMNSLQADDSAIYYCARRRSHYYGYVMDYWGQGTSVTVSS VL: DIVLTQSPASLAVSLGQRATISCKASQSIDYDGIGYLNWYQHKPGQPPKLLIYAASNLESGIPARFSGSGSGTDFTLNIHPVEEEDAATYYCQQSNEDPPTFGSGTKLEIK is ___
Result: 8.74
